IC50 by entry:
- Target Or Test System: Indoleamine 2,3-dioxygenase 1 (Homo sapiens, UniProt P14902)
- Test Details: Inhibition of N-terminal hexa-histidine tagged human IDO1 (12 to 403 residues) expressed in Escherichia coli Transetta (DE3) using L-tryptophan as substrate preincubated with enzyme for 10 mins followed by substrate addition and measured after 30 to 60 mins by microplate reader analysis
- Sequence (P14902 whole entry, the tested form may be a part): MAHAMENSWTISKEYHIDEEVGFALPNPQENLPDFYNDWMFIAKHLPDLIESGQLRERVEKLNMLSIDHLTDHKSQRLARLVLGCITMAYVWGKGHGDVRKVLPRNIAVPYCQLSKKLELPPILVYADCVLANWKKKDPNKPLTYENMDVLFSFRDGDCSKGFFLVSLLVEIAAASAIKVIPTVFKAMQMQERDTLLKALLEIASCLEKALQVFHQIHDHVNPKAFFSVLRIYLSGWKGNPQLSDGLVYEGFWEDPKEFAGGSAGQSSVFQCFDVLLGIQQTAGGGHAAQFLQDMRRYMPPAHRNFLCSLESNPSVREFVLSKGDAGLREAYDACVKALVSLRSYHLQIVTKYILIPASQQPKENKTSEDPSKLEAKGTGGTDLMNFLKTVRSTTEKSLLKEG
Report the figure in µM without appending any unit label.

Guide cases for IC50, answers given:
- CS(=O)(=O)c1ccc(CNc2cc(C(F)(F)F)cc3[nH]ncc23)c([N+](=O)O)c1: 58
- O=[N+]([O-])c1cc(Cl)ccc1CNc1cc(C(F)(F)F)cc2[nH]ncc12: 18
- O=[N+]([O-])c1ccc(CNc2cc(Br)cc3[nH]ncc23)cc1: 6.97
- O=[N+]([O-])c1cccc(CNc2cc(Br)cc3[nH]ncc23)c1: 7.95
- FC(F)(F)c1cc(NC[C@H]2CCCCN2)c2cn[nH]c2c1: 24

Okay, now this compound:
Query string: Using the record for `Oc1ccc(CNc2cc(C(F)(F)F)cc3[nH]ncc23)cc1` , report its IC50.
Result string: 36.7

###

- Target Or Test System: Indoleamine 2,3-dioxygenase 1 (Homo sapiens, UniProt P14902)
pKi: −log10 of the molar value.
Measurement Type: pKi

Query string: I am curious: what pKi value has been reported for CC(C(=O)c1ccc(O)cc1)C1(O)C(=O)Nc2c(Cl)cc(Cl)cc21 (stereo unspecified) ?
Result string: < 6.00

###

- Target Or Test System: UniProt P14902
- Test Details: Inhibition of N-terminal hexa-histidine tagged human IDO1 (12 to 403 residues) expressed in Escherichia coli Transetta (DE3) using L-tryptophan as substrate at 10 uM preincubated with enzyme for 10 mins followed by substrate addition and measured after 30 to 60 mins by microplate reader analysis relative to control
- Setup Conditions: time 40-70 min
- Sequence (P14902 whole entry, looked up, the tested form may be a part): as the sequence (P14902 whole entry, the tested form may be a part) above
Measurement Type: inhibition (%)
I only need the number, in %, no unit after it.

The following compounds have reported results that may help.
• CNC(=O)c1cccc(CNc2cc(C(F)(F)F)cc3[nH]ncc23)c1 = 33
• O=[N+]([O-])c1cccc(CNc2cc(C(F)(F)F)cc3[nH]ncc23)c1 = 45
• FC(F)(F)c1cc(NCC2CNC2)c2cn[nH]c2c1 = 10

Here's the next entry for you.
Query string: What measured inhibition is associated with `O=[N+]([O-])c1ccccc1CNc1cc(Br)cc2cn[nH]c12` on UniProt P14902?
Result string: 4

###

- Target Or Test System: Tryptophan 2,3-dioxygenase (Homo sapiens, UniProt P48775)
- Sequence (P48775 whole entry, looked up, the tested form may be a part): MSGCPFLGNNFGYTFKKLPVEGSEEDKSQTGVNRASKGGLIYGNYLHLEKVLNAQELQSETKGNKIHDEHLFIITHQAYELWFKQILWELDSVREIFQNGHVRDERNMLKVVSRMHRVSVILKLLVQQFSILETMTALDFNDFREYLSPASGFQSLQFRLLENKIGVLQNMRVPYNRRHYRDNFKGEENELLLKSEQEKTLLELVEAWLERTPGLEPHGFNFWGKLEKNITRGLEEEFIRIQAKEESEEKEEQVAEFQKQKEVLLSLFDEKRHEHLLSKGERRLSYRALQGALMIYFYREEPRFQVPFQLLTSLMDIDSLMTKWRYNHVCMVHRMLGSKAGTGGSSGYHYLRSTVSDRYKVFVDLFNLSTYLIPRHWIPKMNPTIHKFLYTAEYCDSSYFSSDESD
- Test Details: Inhibition of N-terminal hexa-histidine tagged human TDO (19 to 388 residues) expressed in Escherichia coli Transetta (DE3) using L-tryptophan as substrate at 100 uM preincubated with enzyme for 10 mins followed by substrate addition and measured after 30 to 60 mins by microplate reader analysis relative to control
- Setup Conditions: time 40-70 min
Label scheme for inhibition: lower than 60% is f, 60% and above is t.

Example cases with answers are listed next.
- NCCn1ncc2c(NCc3ccccc3[N+](=O)[O-])cc(C(F)(F)F)cc21: f
- Oc1ccc(CNc2cc(C(F)(F)F)cc3[nH]ncc23)c(Cl)c1: t
- O=[N+]([O-])c1ccccc1CNc1cc(C(F)(F)F)cc2[nH]ncc12: t
- O=[N+]([O-])c1ccc(CNc2cc(C(F)(F)F)cc3[nH]ncc23)cc1: t
- O=[N+]([O-])c1cccc(CNc2cc(Br)cc3[nH]ncc23)c1: t
- O=[N+]([O-])c1cc(Cl)ccc1CNc1cc(C(F)(F)F)cc2[nH]ncc12: t
- N#Cc1cc(NCc2ccccc2[N+](=O)[O-])c2cn[nH]c2c1: f
- FC(F)(F)c1cc(NCC2CNC2)c2cn[nH]c2c1: f

Query string: Given the entry `O=[N+](O)c1c(Cl)cccc1CNc1cc(C(F)(F)F)cc2[nH]ncc12` , answer whether its inhibition meets or surpasses 60%.
Result string: t

Query string: Cool, now `FC(F)(F)c1cc(NC[C@H]2CCCN2)c2cn[nH]c2c1`
Result string: t

Query string: Repeat for the following compound: `Nc1cccc(CNc2cc(C(F)(F)F)cc3[nH]ncc23)c1`
Result string: t
